target.or.test.system: HDAC7 (Homo sapiens, UniProt Q8WUI4)
Sequence (Q8WUI4 whole entry): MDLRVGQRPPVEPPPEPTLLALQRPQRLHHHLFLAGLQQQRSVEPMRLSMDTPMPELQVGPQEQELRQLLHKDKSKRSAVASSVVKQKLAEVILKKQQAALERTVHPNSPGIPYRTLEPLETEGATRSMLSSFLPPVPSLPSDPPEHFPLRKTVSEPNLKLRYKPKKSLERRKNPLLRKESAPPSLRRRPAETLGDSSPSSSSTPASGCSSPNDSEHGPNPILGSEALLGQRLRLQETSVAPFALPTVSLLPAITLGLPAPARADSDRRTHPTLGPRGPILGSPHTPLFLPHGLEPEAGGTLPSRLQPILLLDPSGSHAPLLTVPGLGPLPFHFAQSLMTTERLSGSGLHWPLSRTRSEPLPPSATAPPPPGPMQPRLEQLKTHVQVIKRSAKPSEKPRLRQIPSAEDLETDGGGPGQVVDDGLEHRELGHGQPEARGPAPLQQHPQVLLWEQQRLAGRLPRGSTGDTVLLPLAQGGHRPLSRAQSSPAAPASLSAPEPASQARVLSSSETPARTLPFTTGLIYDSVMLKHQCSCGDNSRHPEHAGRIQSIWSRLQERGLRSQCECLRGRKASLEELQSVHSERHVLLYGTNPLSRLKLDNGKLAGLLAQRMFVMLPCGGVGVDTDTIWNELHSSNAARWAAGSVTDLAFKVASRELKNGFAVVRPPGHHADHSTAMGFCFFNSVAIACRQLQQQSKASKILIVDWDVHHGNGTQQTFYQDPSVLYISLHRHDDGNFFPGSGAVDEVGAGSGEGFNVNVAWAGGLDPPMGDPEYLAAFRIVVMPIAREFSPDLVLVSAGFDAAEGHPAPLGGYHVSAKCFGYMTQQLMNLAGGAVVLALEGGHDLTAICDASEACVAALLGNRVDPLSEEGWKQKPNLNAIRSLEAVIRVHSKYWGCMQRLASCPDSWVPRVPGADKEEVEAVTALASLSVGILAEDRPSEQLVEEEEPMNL
assay.summary: HDAC biochemical activity measurement (fluorescent substrate deacetylation);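 also: fluorogenic deacetylation assay using acetyl-lysine substrate at 20 µM, enzyme and compound incubated 30 min at 37 °C, then developer added, fluorescence read at 360/460 nm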
measurement.conditions: HDAC7; 37° C. 30 minutes
reported.property: IC50 HDAC7

{"compound": "C/C=C1\\NC(=O)c2cc(F)cc(n2)CNC(=O)C[C@@H](/C=C/CCS)OC(=O)[C@H](CCCCNC(=O)OCC2c3ccccc3-c3ccccc32)NC1=O [Compound 121]", "target.or.test.system": "HDAC7 (Homo sapiens, UniProt Q8WUI4)", "IC50 HDAC7": "no activity"}
{"compound": "C/C=C1\\NC(=O)c2cc(F)cc(n2)CNC(=O)C[C@@H](/C=C/CCSC(=O)CCCCC)OC(=O)[C@H](C(C)C)NC1=O [Example 37]", "target.or.test.system": "HDAC7 (Homo sapiens, UniProt Q8WUI4)", "IC50 HDAC7": "no activity"}
{"compound": "C/C=C1\\NC(=O)c2cccc(n2)CCNC(=O)C[C@@H](/C=C/CCS)OC(=O)[C@H](C(C)C)NC1=O [Compound 146]", "target.or.test.system": "HDAC7 (Homo sapiens, UniProt Q8WUI4)", "IC50 HDAC7": "no activity"}
{"compound": "C/C=C1\\NC(=O)c2ccc(F)c(n2)CNC(=O)C[C@@H](/C=C/CCSC=O)OC(=O)[C@H](C(C)C)NC1=O [Example 53]", "target.or.test.system": "HDAC7 (Homo sapiens, UniProt Q8WUI4)", "IC50 HDAC7": "no activity"}
{"compound": "C/C=C1\\NC(=O)c2ccc(SC)c(n2)CNC(=O)C[C@@H](/C=C/CCS)OC(=O)[C@H](C(C)C)NC1=O [Compound 228]", "target.or.test.system": "HDAC7 (Homo sapiens, UniProt Q8WUI4)", "IC50 HDAC7": "no activity"}
{"compound": "CC(=O)SCC/C=C/[C@@H]1CC(=O)NCc2cccc(n2)C(=O)NC(=C(C)C)C(=O)N[C@@H](C(C)C)C(=O)O1 [Compound 20]", "target.or.test.system": "HDAC7 (Homo sapiens, UniProt Q8WUI4)", "IC50 HDAC7": "no activity"}
{"compound": "C/C=C1\\NC(=O)c2cc(SC)cc(n2)CNC(=O)C[C@@H](/C=C/CCSC(C)=O)OC(=O)[C@H](CC)NC1=O [Compound 178]", "target.or.test.system": "HDAC7 (Homo sapiens, UniProt Q8WUI4)", "IC50 HDAC7": "no activity"}
{"compound": "C/C=C1\\NC(=O)c2nc(ccc2SC)CNC(=O)C[C@@H](/C=C/CCSC(C)=O)OC(=O)[C@H](Cc2ccc(O)cc2)NC1=O [Compound 201]", "target.or.test.system": "HDAC7 (Homo sapiens, UniProt Q8WUI4)", "IC50 HDAC7": "no activity"}

Form field: reported IC50 HDAC7 of C/C=C1\NC(=O)c2cccc(n2)CNC(=O)C[C@@H](/C=C/CCSC(=O)CCCCCCC)OC(=O)[C@H](CCSC)NC1=O [Compound 240]
no activity

Form field: reported IC50 HDAC7 of C/C=C1\NC(=O)c2nc(ccc2SC)CNC(=O)C[C@@H](/C=C/CCSC(=O)CCCCCCC)OC(=O)[C@H](Cc2ccccc2)NC1=O [Compound 189]
no activity

Form field: reported IC50 HDAC7 of C=C1NC(=O)c2cccc(n2)CNC(=O)C[C@@H](/C=C/CCSC(C)=O)OC(=O)[C@H](C)NC1=O [Example 21]
no activity

Form field: reported IC50 HDAC7 of C/C=C1\NC(=O)c2nc(ccc2F)CNC(=O)C[C@@H](/C=C/CCSC(=O)CCCCC)OC(=O)[C@H](C(C)C)NC1=O [Compound 36]
no activity

Form field: reported IC50 HDAC7 of C/C=C1\NC(=O)c2ncc(F)c(n2)CNC(=O)C[C@@H](/C=C/CCSC(C)=O)OC(=O)[C@H](C(C)C)NC1=O [Compound 97]
no activity
